- Tested on: Epidermal growth factor receptor (Homo sapiens), P00533 [L858R,T790M]
- Sequence (P00533 whole entry T790M/L858R, looked up): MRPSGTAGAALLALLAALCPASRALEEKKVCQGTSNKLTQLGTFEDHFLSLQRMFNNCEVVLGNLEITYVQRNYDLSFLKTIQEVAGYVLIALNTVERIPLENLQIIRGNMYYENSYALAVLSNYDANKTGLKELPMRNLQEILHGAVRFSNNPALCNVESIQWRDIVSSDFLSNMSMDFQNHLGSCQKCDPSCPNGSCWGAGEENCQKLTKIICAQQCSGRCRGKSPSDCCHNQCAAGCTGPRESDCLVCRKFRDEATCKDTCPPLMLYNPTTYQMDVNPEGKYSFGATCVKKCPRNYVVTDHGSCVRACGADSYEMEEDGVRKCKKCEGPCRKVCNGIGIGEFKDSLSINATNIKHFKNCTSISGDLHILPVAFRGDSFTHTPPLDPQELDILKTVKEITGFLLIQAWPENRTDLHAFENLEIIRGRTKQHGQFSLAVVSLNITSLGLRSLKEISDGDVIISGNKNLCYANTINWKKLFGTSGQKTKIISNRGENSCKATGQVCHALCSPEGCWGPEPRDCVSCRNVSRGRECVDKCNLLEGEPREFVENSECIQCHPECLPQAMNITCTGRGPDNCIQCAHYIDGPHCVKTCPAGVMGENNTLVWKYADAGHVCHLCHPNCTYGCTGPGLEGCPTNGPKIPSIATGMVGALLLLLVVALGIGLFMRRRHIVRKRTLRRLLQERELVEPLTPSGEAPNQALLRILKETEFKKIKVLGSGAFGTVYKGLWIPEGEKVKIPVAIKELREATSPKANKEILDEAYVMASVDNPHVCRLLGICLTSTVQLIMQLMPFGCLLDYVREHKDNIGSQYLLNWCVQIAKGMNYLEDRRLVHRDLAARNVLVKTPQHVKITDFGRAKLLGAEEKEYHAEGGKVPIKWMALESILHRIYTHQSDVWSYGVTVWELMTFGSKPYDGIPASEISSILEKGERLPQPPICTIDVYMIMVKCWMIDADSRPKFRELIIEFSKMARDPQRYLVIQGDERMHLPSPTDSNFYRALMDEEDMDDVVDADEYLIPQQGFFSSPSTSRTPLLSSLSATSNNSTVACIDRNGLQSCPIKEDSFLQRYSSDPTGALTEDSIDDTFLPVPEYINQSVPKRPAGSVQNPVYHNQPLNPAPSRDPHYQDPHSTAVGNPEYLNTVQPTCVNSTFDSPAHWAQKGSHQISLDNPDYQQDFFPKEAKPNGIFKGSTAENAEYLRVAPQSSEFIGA
- Test context: at 0.1 µM

{"columns": ["Structure notation", "inhibition (%)"],
 "data": [
  ["Nc1nonc1-c1nc2cnccc2n1C1CCCCC1", -0.65],
  ["NC(=O)c1sc(-n2cnc3cc(C(F)(F)F)ccc32)cc1OCc1ccccc1Br", -0.11],
  ["CCn1c(-c2nonc2N)nc2c(C#CC(C)(C)O)ncc(OCC3CCNCC3)c21", 2.99],
  ["NS(=O)(=O)c1ccc(N/C=C2\\C(=O)Nc3ccc4ncsc4c32)cc1", 4.07],
  ["CCn1c(-c2nonc2N)nc2c(C#CC(C)(C)O)ncc(OC[C@@H]3CCCN3)c21", 4.31]
]}

====

- Assayed system: Inhibitor of nuclear factor kappa-B kinase subunit beta (Homo sapiens) (UniProt O14920);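 further: reported as mean inhibition, from the GSK PKIS screening set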
- Sequence (O14920 whole entry): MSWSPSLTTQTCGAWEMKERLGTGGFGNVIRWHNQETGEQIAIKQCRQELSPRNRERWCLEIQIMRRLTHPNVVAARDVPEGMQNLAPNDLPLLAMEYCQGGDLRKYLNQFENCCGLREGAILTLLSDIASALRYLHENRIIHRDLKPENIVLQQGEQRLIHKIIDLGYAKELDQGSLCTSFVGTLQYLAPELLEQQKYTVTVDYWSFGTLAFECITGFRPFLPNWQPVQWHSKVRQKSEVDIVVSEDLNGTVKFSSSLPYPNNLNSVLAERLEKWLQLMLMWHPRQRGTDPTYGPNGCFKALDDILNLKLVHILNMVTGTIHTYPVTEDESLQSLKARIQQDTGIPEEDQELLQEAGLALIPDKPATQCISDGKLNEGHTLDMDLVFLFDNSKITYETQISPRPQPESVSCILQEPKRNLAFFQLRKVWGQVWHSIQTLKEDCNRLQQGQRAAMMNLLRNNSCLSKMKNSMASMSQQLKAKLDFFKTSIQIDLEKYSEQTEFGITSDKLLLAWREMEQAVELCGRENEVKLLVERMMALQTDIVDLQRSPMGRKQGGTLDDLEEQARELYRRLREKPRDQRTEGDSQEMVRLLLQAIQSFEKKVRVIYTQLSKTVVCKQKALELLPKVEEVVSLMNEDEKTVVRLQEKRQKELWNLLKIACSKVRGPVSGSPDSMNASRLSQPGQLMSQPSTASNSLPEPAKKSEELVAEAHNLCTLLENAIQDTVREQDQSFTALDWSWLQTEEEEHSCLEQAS
- Test context: at 1 µM
As shown below, each of these molecules has a reported inhibition value.
Quantity kind: inhibition (%)

{"columns": ["Structure notation", "Result value"],
 "data": [
  ["NS(=O)(=O)c1ccc(N/C=C2\\C(=O)Nc3ccc4ncsc4c32)cc1", 13.1],
  ["CCn1c(-c2nonc2N)nc2c(C#CC(C)(C)O)ncc(OC[C@@H]3CCCN3)c21", 4.4],
  ["CCn1c(-c2nonc2N)nc2c(C#CC(C)(C)O)nc(O[C@@H](CN)c3ccccc3)cc21", -3.23],
  ["COc1cccc(COc2cc(-n3cnc4ccccc43)sc2C(N)=O)c1", -0.64]
]}

====

- Assayed system: Cyclin-dependent kinase 6 (Homo sapiens) (UniProt Q00534);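 further: mean percent inhibition of CDK6 complexed with cyclin D3, from the GSK PKIS kinase inhibitor screen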
- Sequence (Q00534 whole entry): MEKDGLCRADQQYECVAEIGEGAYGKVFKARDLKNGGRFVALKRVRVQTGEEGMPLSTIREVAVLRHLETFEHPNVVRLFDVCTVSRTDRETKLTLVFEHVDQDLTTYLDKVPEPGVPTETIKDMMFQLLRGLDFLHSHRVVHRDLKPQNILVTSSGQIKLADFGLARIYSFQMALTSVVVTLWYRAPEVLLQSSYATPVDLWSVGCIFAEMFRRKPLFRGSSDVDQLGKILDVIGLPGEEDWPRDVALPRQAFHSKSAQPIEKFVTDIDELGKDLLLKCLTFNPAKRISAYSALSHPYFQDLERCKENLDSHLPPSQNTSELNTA
- Test context: at 0.1 µM

{"columns": ["Structure notation", "inhibition / %"],
 "data": [
  ["Cc1cc(-c2ccco2)cc(C)c1/C=C/c1cncc(-c2nn[nH]n2)c1", -2.45],
  ["CCn1c(-c2nonc2N)nc2c(C#CC(C)(C)O)nc(O[C@@H](CN)c3ccccc3)cc21", -4.5],
  ["Nc1nonc1-c1nc2cnccc2n1C1CCCCC1", -5.33],
  ["CCn1c(-c2nonc2N)nc2c(C#CC(C)(C)O)ncc(OCC3CCNCC3)c21", -0.95],
  ["NS(=O)(=O)c1ccc(N/C=C2\\C(=O)Nc3ccc4ncsc4c32)cc1", 36.8],
  ["NS(=O)(=O)c1ccc(-c2ccc3c(NC(=O)C4CC4)n[nH]c3c2)cc1", 13.7],
  ["CCn1c(-c2nonc2N)nc2c(C#CC(C)(C)O)ncc(OC[C@@H]3CCCN3)c21", -2.82]
]}

====

- Assayed system: Serine/threonine-protein kinase DCLK2 (Homo sapiens) (UniProt Q8N568);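 further: each value is a mean percent inhibition of DCLK2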
- Sequence (Q8N568 whole entry): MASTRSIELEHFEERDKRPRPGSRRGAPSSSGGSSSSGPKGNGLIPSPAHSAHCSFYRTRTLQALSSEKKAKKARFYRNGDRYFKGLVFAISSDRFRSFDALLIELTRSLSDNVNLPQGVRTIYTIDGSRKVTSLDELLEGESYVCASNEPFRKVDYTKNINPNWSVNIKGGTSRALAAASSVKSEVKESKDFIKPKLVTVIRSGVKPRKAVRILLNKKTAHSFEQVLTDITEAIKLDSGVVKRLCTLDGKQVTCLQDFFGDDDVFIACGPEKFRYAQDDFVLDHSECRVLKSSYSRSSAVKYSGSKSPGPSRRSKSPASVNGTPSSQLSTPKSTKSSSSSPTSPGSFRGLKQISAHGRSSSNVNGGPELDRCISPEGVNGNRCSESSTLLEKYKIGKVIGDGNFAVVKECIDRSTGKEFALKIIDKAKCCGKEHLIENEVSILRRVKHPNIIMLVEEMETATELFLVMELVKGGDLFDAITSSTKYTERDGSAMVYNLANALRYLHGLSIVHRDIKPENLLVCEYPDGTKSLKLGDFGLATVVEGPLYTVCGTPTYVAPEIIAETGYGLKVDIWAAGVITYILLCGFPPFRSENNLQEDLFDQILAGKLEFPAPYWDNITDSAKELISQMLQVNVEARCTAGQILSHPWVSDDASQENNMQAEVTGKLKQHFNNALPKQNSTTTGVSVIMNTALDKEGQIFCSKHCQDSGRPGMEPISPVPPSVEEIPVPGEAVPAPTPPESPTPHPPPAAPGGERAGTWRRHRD
- Test context: at 1 µM

{"columns": ["Structure notation", "inhibition (%)"],
 "data": [
  ["CCn1c(-c2nonc2N)nc2c(C#CC(C)(C)O)nc(O[C@@H](CN)c3ccccc3)cc21", 18.5],
  ["COc1cccc(COc2cc(-n3cnc4ccccc43)sc2C(N)=O)c1", 0.3],
  ["CCn1c(-c2nonc2N)nc2c(C#CC(C)(C)O)ncc(OCC3CCNCC3)c21", -1.26],
  ["Nc1nonc1-c1nc2cnccc2n1C1CCCCC1", 1.52],
  ["COc1cc(C=NNc2ncnc3c2cnn3Cc2ccccc2)ccc1O", -3.02],
  ["COc1cc2c(cc1Nc1nc(Nc3ccsc3C(N)=O)c3cc[nH]c3n1)N(C(=O)CN(C)C)CCC2", 0.34],
  ["NS(=O)(=O)c1ccc(N/C=C2\\C(=O)Nc3ccc4ncsc4c32)cc1", 5.55],
  ["Cc1cc(-c2ccco2)cc(C)c1/C=C/c1cncc(-c2nn[nH]n2)c1", 0.25],
  ["Fc1ccc(-c2ncn(C3CCNCC3)c2-c2ccnc(Oc3ccccc3)n2)cc1", -2.43],
  ["NS(=O)(=O)c1ccc(-c2ccc3c(NC(=O)C4CC4)n[nH]c3c2)cc1", 0.39]
]}

====

- Assayed system: Vascular endothelial growth factor receptor 1 (Homo sapiens)
- Test context: at 1 µM
- Description: GSK_PKIS: FLT1 mean inhibition at 1 uM [Nanosyn]
Here, each record is paired with measured inhibition data.

{"columns": ["Structure notation", "inhibition [%]"],
 "data": [
  ["COc1cccc(-n2ncc3c(N/N=C/c4ccncc4)ncnc32)c1", 27.6],
  ["CCn1c(-c2nonc2N)nc2c(C#CC(C)(C)O)ncc(OCC3CCNCC3)c21", 23.5],
  ["Nc1nonc1-c1nc2cnccc2n1C1CCCCC1", 4.33],
  ["CCn1c(-c2nonc2N)nc2c(C#CC(C)(C)O)nc(O[C@@H](CN)c3ccccc3)cc21", 79.8],
  ["NS(=O)(=O)c1ccc(N/C=C2\\C(=O)Nc3ccc4ncsc4c32)cc1", 50.6],
  ["COc1cc(C=NNc2ncnc3c2cnn3Cc2ccccc2)ccc1O", 1.82],
  ["NS(=O)(=O)c1ccc(-c2ccc3c(NC(=O)C4CC4)n[nH]c3c2)cc1", 1.37],
  ["Cc1cc(-c2ccco2)cc(C)c1/C=C/c1cncc(-c2nn[nH]n2)c1", 1.77]
]}

====

- Assayed system: Casein kinase I isoform gamma-3 (Homo sapiens);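 further: mean inhibition of CK1-g3, GSK PKIS screen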
- Test context: at 1 µM
Quantity kind: inhibition (%)

{"columns": ["Structure notation", "Assayed system", "Quantity kind", "Unit symbol", "Result value"],
 "data": [
  ["NS(=O)(=O)c1ccc(N/C=C2\\C(=O)Nc3ccc4ncsc4c32)cc1", "Casein kinase I isoform gamma-3 (Homo sapiens)", "inhibition", "%", 14.4],
  ["NC(=O)c1sc(-n2cnc3cc(C(F)(F)F)ccc32)cc1OCc1ccccc1Br", "Casein kinase I isoform gamma-3 (Homo sapiens)", "inhibition", "%", 1.06],
  ["CCn1c(-c2nonc2N)nc2c(C#CC(C)(C)O)nc(O[C@@H](CN)c3ccccc3)cc21", "Casein kinase I isoform gamma-3 (Homo sapiens)", "inhibition", "%", 9.88],
  ["CCn1c(-c2nonc2N)nc2c(C#CC(C)(C)O)ncc(OCC3CCNCC3)c21", "Casein kinase I isoform gamma-3 (Homo sapiens)", "inhibition", "%", -0.62],
  ["COc1cc(C=NNc2ncnc3c2cnn3Cc2ccccc2)ccc1O", "Casein kinase I isoform gamma-3 (Homo sapiens)", "inhibition", "%", -1.86],
  ["Cc1cc(-c2ccco2)cc(C)c1/C=C/c1cncc(-c2nn[nH]n2)c1", "Casein kinase I isoform gamma-3 (Homo sapiens)", "inhibition", "%", 2.3],
  ["COc1cccc(-n2ncc3c(N/N=C/c4ccncc4)ncnc32)c1", "Casein kinase I isoform gamma-3 (Homo sapiens)", "inhibition", "%", 6.59],
  ["COc1cc2c(cc1Nc1nc(Nc3ccsc3C(N)=O)c3cc[nH]c3n1)N(C(=O)CN(C)C)CCC2", "Casein kinase I isoform gamma-3 (Homo sapiens)", "inhibition", "%", 10.3],
  ["Nc1nonc1-c1nc2cnccc2n1C1CCCCC1", "Casein kinase I isoform gamma-3 (Homo sapiens)", "inhibition", "%", 1.85]
]}

====

- System: Mast/stem cell growth factor receptor Kit (Homo sapiens), P10721 [D816V]
- Sequence (P10721 whole entry D816V): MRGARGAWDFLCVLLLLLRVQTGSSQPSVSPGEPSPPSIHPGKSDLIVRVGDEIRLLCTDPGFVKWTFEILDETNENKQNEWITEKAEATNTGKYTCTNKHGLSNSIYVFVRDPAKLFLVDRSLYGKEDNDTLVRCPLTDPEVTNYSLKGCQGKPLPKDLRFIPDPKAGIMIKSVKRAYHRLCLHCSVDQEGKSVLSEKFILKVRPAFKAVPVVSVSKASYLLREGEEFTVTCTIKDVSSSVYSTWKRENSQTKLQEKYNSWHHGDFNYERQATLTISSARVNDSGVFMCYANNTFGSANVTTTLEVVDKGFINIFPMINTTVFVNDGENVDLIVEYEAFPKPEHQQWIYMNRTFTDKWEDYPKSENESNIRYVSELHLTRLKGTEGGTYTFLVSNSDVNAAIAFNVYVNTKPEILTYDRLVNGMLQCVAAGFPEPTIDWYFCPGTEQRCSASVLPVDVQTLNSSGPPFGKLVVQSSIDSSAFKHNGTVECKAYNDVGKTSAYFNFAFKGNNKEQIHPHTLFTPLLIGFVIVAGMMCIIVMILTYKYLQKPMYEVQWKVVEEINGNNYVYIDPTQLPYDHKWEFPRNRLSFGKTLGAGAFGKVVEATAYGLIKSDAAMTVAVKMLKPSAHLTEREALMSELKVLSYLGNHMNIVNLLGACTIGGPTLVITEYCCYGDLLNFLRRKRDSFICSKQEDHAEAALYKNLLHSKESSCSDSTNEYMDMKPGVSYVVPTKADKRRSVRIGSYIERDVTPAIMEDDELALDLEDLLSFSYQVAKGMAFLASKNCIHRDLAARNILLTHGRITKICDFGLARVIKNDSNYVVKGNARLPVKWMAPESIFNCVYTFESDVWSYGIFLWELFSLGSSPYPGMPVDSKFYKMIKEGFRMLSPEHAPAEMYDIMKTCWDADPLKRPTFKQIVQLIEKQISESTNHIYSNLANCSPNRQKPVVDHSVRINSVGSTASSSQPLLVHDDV
- Test context: at 1 µM
inhibition for assorted molecules

{"columns": ["Structure notation", "inhibition (%)"],
 "data": [
  ["NS(=O)(=O)c1ccc(N/C=C2\\C(=O)Nc3ccc4ncsc4c32)cc1", 14.5],
  ["CCn1c(-c2nonc2N)nc2c(C#CC(C)(C)O)ncc(OC[C@@H]3CCCN3)c21", 4.32],
  ["CCn1c(-c2nonc2N)nc2c(C#CCN)ncc(OCCCN)c21", 3.48],
  ["COc1cccc(-n2ncc3c(N/N=C/c4ccncc4)ncnc32)c1", 12.7],
  ["NS(=O)(=O)c1ccc(-c2ccc3c(NC(=O)C4CC4)n[nH]c3c2)cc1", 0.9],
  ["COc1cc2c(cc1Nc1nc(Nc3ccsc3C(N)=O)c3cc[nH]c3n1)N(C(=O)CN(C)C)CCC2", 2.53],
  ["Cc1cc(-c2ccco2)cc(C)c1/C=C/c1cncc(-c2nn[nH]n2)c1", -2.99]
]}

====

- Assayed system: Ribosomal protein S6 kinase alpha-6 (Homo sapiens) (UniProt Q9UK32);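 further: each value is a mean inhibition of RSK4 from a GSK PKIS panel screen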
- Sequence (Q9UK32 whole entry): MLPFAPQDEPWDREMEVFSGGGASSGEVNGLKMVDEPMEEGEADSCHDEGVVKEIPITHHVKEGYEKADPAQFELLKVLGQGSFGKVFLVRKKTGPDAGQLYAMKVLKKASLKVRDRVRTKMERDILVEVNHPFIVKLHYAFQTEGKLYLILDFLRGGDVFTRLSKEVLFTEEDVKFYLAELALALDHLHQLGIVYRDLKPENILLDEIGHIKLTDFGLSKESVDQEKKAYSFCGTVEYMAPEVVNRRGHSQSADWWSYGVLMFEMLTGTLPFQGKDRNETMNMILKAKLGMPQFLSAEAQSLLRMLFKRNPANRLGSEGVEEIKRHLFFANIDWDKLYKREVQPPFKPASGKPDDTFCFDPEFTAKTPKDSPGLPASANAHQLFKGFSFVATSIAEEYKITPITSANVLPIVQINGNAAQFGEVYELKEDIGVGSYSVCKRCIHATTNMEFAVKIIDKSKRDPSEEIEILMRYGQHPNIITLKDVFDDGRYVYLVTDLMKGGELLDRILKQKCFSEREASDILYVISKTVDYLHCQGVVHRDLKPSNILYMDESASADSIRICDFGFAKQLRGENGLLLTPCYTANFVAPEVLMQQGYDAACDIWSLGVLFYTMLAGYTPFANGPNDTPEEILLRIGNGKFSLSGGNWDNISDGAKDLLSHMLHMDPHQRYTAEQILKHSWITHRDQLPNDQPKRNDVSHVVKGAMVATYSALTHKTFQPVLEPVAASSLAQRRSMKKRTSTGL
- Test context: at 1 µM
Criterion: inhibition meeting or surpassing 8%. Met: 1. Not met: -1.

{"columns": ["Structure notation", "Assayed system", "Qualitative label"],
 "data": [
  ["COc1cccc(-n2ncc3c(N/N=C/c4ccncc4)ncnc32)c1", "Ribosomal protein S6 kinase alpha-6 (Homo sapiens) (UniProt Q9UK32)", -1],
  ["NS(=O)(=O)c1ccc(N/C=C2\\C(=O)Nc3ccc4ncsc4c32)cc1", "Ribosomal protein S6 kinase alpha-6 (Homo sapiens) (UniProt Q9UK32)", 1],
  ["NS(=O)(=O)c1ccc(-c2ccc3c(NC(=O)C4CC4)n[nH]c3c2)cc1", "Ribosomal protein S6 kinase alpha-6 (Homo sapiens) (UniProt Q9UK32)", -1],
  ["Nc1nonc1-c1nc2cnccc2n1C1CCCCC1", "Ribosomal protein S6 kinase alpha-6 (Homo sapiens) (UniProt Q9UK32)", 1],
  ["COc1cccc(COc2cc(-n3cnc4ccccc43)sc2C(N)=O)c1", "Ribosomal protein S6 kinase alpha-6 (Homo sapiens) (UniProt Q9UK32)", -1],
  ["NC(=O)c1sc(-n2cnc3cc(C(F)(F)F)ccc32)cc1OCc1ccccc1Br", "Ribosomal protein S6 kinase alpha-6 (Homo sapiens) (UniProt Q9UK32)", -1],
  ["COc1cc2c(cc1Nc1nc(Nc3ccsc3C(N)=O)c3cc[nH]c3n1)N(C(=O)CN(C)C)CCC2", "Ribosomal protein S6 kinase alpha-6 (Homo sapiens) (UniProt Q9UK32)", 1]
]}

The reported numbers originate from ChEMBL document CHEMBL1961873.
